test system: biotinyl-Trp-oxazolone; experiment: self-aminoacylation, catalytic enhancement (BWO) (fold over background); higher = more active; k-Seq, kA / k0A0; sequences stand for … in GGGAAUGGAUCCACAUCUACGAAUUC…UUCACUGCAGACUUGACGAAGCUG
Fewer inactive variants are shown than the library holds.

{"record-sequence": "CUAUUUCAAUCAAUCGGUCUG [Fam1A.1 aminoacylation ribozyme variant]", "self-aminoacylation": 3.72}
{"record-sequence": "AUUUCCCUGGUCAUCGUGUGA [Fam2.1 aminoacylation ribozyme variant]", "self-aminoacylation": 4.8}
{"record-sequence": "UACUUUGCUAAUAGUCGCAAG [Fam3.1 aminoacylation ribozyme variant]", "self-aminoacylation": 1.46}
{"record-sequence": "AAGUAUGCUAAUAGUCGCGAG [Fam3.1 aminoacylation ribozyme variant]", "self-aminoacylation": 4.06}
{"record-sequence": "CUACUUGAAACGAUCGGUCUG [Fam1A.1 aminoacylation ribozyme variant]", "self-aminoacylation": 0.726}
{"record-sequence": "AAGUUUGCUAAUUGUUGCAAG [Fam3.1 aminoacylation ribozyme variant]", "self-aminoacylation": 0.926}
{"record-sequence": "AUACACCUAGGUCAUCUGGUG [Fam2.2 aminoacylation ribozyme variant]", "self-aminoacylation": 1.41}
{"record-sequence": "CCACACUUCGAUCAAUCGGUC [Fam1B.1 aminoacylation ribozyme variant]", "self-aminoacylation": 0.903}
{"record-sequence": "CUACUUCAAACAAUCGGUCAU [Fam1A.1 aminoacylation ribozyme variant]", "self-aminoacylation": 1.88}
{"record-sequence": "GUACUUCAAACAAGCGGUCUG [Fam1A.1 aminoacylation ribozyme variant]", "self-aminoacylation": 2.06}
{"record-sequence": "CCACUUCAAACAAUCGGUCUC [Fam1A.1 aminoacylation ribozyme variant]", "self-aminoacylation": 42.2}
{"record-sequence": "AAUUUUGCUAUUAGUCGCAAG [Fam3.1 aminoacylation ribozyme variant]", "self-aminoacylation": 1.85}
{"record-sequence": "AUUACCCUGGUCAUCAAGUUA [Fam2.1 aminoacylation ribozyme variant]", "self-aminoacylation": 0.328}
{"record-sequence": "AUCCACCUAGGUUAUCGGGUG [Fam2.2 aminoacylation ribozyme variant]", "self-aminoacylation": 5.62}
{"record-sequence": "AUUACCCUGGUCAUCUGGUGA [Fam2.1 aminoacylation ribozyme variant]", "self-aminoacylation": 4.53}
{"record-sequence": "AACUUUACUAAUAGUCGCAAG [Fam3.1 aminoacylation ribozyme variant]", "self-aminoacylation": 2.92}
{"record-sequence": "AUUACCGUGGUCAUCGAGUGC [Fam2.1 aminoacylation ribozyme variant]", "self-aminoacylation": 1}
{"record-sequence": "AUUCACAUAGGCCAUCGGGUG [Fam2.2 aminoacylation ribozyme variant]", "self-aminoacylation": 4.23}
{"record-sequence": "AAGUUUGCCUAUAGUCGCAAG [Fam3.1 aminoacylation ribozyme variant]", "self-aminoacylation": 0.784}
{"record-sequence": "AACUUUGAUAAUAGUCGCAAG [Fam3.1 aminoacylation ribozyme variant]", "self-aminoacylation": 1.55}
{"record-sequence": "CCACACUUCUUGCAAUCGGUC [Fam1B.1 aminoacylation ribozyme variant]", "self-aminoacylation": 0.654}
{"record-sequence": "AUUACCCUGGUCAUCGAGGUA [Fam2.1 aminoacylation ribozyme variant]", "self-aminoacylation": 5.45}
{"record-sequence": "AUUCACCUAGGUAAGCGGGUG [Fam2.2 aminoacylation ribozyme variant]", "self-aminoacylation": 2.31}
{"record-sequence": "CCACACUUCGGGCAAUCGGUC [Fam1B.1 aminoacylation ribozyme variant]", "self-aminoacylation": 2.23}
{"record-sequence": "CAACUUCAAUCAAUCGGUCUG [Fam1A.1 aminoacylation ribozyme variant]", "self-aminoacylation": 24}
{"record-sequence": "AAGUUUGCUAGUAGUAGCAAG [Fam3.1 aminoacylation ribozyme variant]", "self-aminoacylation": 1.2}
{"record-sequence": "AUUCACCUAGGUGAUCGGCUG [Fam2.2 aminoacylation ribozyme variant]", "self-aminoacylation": 1.67}
{"record-sequence": "AUUCACCUAGGCCAUCGGGUU [Fam2.2 aminoacylation ribozyme variant]", "self-aminoacylation": 0.76}
{"record-sequence": "AUUCAGCUCGGUCAUCGGGUG [Fam2.2 aminoacylation ribozyme variant]", "self-aminoacylation": 7.34}

Origin of the recorded values: the supplement of paper PMC9233669
